Every entry's value here was drawn from ChEMBL document CHEMBL1125383.

Attribute: Decrease in blood pressure
molecular target: Voltage-gated L-type calcium channel (Rattus norvegicus, UniProt P22002+Q02485+P27732); assay: Percentage decrease in blood pressure at a dose of 135 uM/kg for 6-12 hr in spontaneously hypertensive rats.; type: functional, tissue-based
State the value, then name its unit.

Worked examples, 3 molecules total:
>  <Molecule>
COc1ccc([C@@H]2Cc3c(C)cccc3N(CCN(C)C)C(=O)[C@@H]2OC(C)=O)cc1

>  <Decrease in blood pressure>
10%

$$$$
>  <Molecule>
CNCCN1C(=O)[C@H](OC(C)=O)[C@H](c2ccc(OCOC)cc2)Cc2c1cccc2C(F)(F)F

>  <Decrease in blood pressure>
8%

$$$$
>  <Molecule>
CNCCN1C(=O)[C@H](OC(C)=O)[C@H](c2ccc(OC)cc2)Cc2c1cccc2C(F)(F)F

>  <Decrease in blood pressure>
34%

$$$$

## Task Retrieve Decrease in blood pressure measured for COc1ccc([C@@H]2Cc3c(cccc3C(F)(F)F)N(CCN(C)C)C(=O)[C@@H]2Cc2ccccc2)cc1 and print it.
## Result 8%

## Task For the molecule COc1ccc([C@@H]2Cc3c(cccc3C(F)(F)F)N(CCN(C)C)C(=O)[C@@H]2OC(C)=O)cc1 , report Decrease in blood pressure.
## Result 27%

## Task Return Decrease in blood pressure (reported value) for this molecule: COc1ccc([C@@H]2Cc3c(cccc3C(F)(F)F)N(CCN(C)C(C)C)C(=O)[C@@H]2C)cc1
## Result 15%

## Task Give recorded Decrease in blood pressure. COc1ccc([C@@H]2Cc3c(cccc3C(F)(F)F)N(CCN(C(C)C)C(C)C)C(=O)[C@@H]2C)cc1
## Result 8%

## Task Give reported Decrease in blood pressure value for CC[C@H]1C(=O)N(CCN(C)C)c2cccc(C(F)(F)F)c2C[C@H]1c1ccc(OC)cc1
## Result 19%

## Task Complete the entry with Decrease in blood pressure for COc1ccccc1[C@@H]1Cc2cc(Cl)ccc2N(CCN(C)C)C(=O)[C@@H]1OC(C)=O
## Result 2%

## Task Could you please provide reported Decrease in blood pressure for COc1ccc([C@@H]2Cc3c(cccc3C(F)(F)F)N(CCN(C)C)C(=O)[C@@H]2C)cc1 ? Thanks!
## Result 22%

## Task Find the measured Decrease in blood pressure of COc1ccc([C@@H]2Cc3c(cccc3C(F)(F)F)N(CCNC(C)C)C(=O)[C@@H]2C)cc1 and report it.
## Result 15%

## Task State its Decrease in blood pressure: COc1ccc([C@@H]2Cc3c(cccc3C(F)(F)F)N(CCN(C)C(C)=O)C(=O)[C@@H]2OC(C)=O)cc1
## Result 1%

## Task Indicate the recorded Decrease in blood pressure value for this molecule: COc1ccc([C@@H]2Cc3cc(Sc4ccccc4)ccc3N(CCN(C)C)C(=O)[C@@H]2OC(C)=O)cc1
## Result 17%

## Task Look up Decrease in blood pressure of COc1ccc([C@@H]2Cc3c(C(=O)OCc4ccccc4)cccc3N(CCN(C)C)C(=O)[C@@H]2OC(C)=O)cc1 and report it.
## Result 8%

## Task Read the entry CNC(=O)Oc1ccc2c(c1)C[C@@H](c1ccc(OC)cc1)[C@@H](OC(C)=O)C(=O)N2CCN(C)C and write its reported Decrease in blood pressure.
## Result 10%

---

target: Voltage-gated L-type calcium channel (Rattus norvegicus, UniProt P22002+Q02485+P27732); assay: Percentage decrease in blood pressure at a dose of 135 uM/kg for 0-6 h in spontaneously hypertensive rats.; assay type: functional, tissue-based
Labelling field: enter Met if recorded Decrease in blood pressure is less than 20%. Enter Not met if it equals or exceeds that cut-off.

>  <Structure notation>
COc1ccc([C@@H]2Cc3ccccc3N(CCN(C)C)C(=O)[C@@H]2OC(C)=O)cc1

>  <Group label>
Met

$$$$

## Task Decrease in blood pressure strictly < 20% for this compound? COc1ccc([C@@H]2Cc3c(cccc3C(F)(F)F)N(CCN(C)C)C(=O)[C@@H]2OC(C)=O)cc1
## Result Not met

## Task Given the entry COc1ccc([C@@H]2Cc3cc(SC(C)(C)C)ccc3N(CCN(C)C)C(=O)[C@@H]2OC(C)=O)cc1 , would its reported Decrease in blood pressure be below 20%?
## Result Met

## Task Please determine if CNCCN1C(=O)[C@H](OC(C)=O)[C@H](c2ccc(OCCOC)cc2)Cc2c1cccc2C(F)(F)F is below 20% in terms of Decrease in blood pressure.
## Result Met

## Task Problem: For the compound COc1ccc([C@@H]2Cc3c(ccc(Br)c3OC)N(CCN(C)C)C(=O)[C@@H]2OC(C)=O)cc1 , is Decrease in blood pressure under 20%?
## Result Met

## Task Lab note: Decrease in blood pressure threshold 20%. Does this compound come in strictly under it? CNCCN1C(=O)[C@H](OC(C)=O)[C@H](c2ccc(OC)cc2)Cc2c1cccc2C(F)(F)F
## Result Not met

## Task Confirm or reject: Decrease in blood pressure of COc1ccc([C@@H]2Cc3c(cccc3C(F)(F)F)N(CCN(C)CCCCc3ccccc3)C(=O)[C@@H]2OC(C)=O)cc1 lies strictly below 20%
## Result Not met
